test system: Methionine--tRNA ligase (Staphylococcus aureus); assay: Inhibition of Staphylococcus aureus methionyl-tRNA synthetase (SaMetRS) at the concentration of 10 uM
Values of inhibition greater than or equal to 40% map to Yes; values below map to No.

- NC(=O)[C@H](Cc1ccc(O)cc1)NC(=O)C1CCCCN1/C=C1\N=C(c2ccc(Cl)cc2Cl)OC1=O (stereo partly specified): Yes
- NC(=O)[C@H](Cc1ccc(O)cc1)NC(=O)C1CCCCN1/C=C1\N=C(c2ccc(Br)cc2)OC1=O (stereo partly specified): Yes
- NC(=O)[C@H](Cc1ccc(O)cc1)NC(=O)C1CCN(/C=C2\N=C(c3ccc(Cl)cc3Cl)OC2=O)CC1: No
- NC(=O)[C@H](Cc1ccc(O)cc1)NC(=O)C1CCCN(/C=C2\N=C(c3ccc(Cl)cc3Cl)OC2=O)C1 (stereo partly specified): Yes
- NC(=O)[C@H](Cc1ccc(O)cc1)NC(=O)C1CCN(/C=C2\N=C(c3ccc(Br)cc3)OC2=O)CC1: No

###

inhibition reference
molecular target: UniProtKB P56192; assay: Inhibition of human methionyl-tRNA synthetase (fMetRS) at the concentration of 10 uM
Sequence (P56192 whole entry): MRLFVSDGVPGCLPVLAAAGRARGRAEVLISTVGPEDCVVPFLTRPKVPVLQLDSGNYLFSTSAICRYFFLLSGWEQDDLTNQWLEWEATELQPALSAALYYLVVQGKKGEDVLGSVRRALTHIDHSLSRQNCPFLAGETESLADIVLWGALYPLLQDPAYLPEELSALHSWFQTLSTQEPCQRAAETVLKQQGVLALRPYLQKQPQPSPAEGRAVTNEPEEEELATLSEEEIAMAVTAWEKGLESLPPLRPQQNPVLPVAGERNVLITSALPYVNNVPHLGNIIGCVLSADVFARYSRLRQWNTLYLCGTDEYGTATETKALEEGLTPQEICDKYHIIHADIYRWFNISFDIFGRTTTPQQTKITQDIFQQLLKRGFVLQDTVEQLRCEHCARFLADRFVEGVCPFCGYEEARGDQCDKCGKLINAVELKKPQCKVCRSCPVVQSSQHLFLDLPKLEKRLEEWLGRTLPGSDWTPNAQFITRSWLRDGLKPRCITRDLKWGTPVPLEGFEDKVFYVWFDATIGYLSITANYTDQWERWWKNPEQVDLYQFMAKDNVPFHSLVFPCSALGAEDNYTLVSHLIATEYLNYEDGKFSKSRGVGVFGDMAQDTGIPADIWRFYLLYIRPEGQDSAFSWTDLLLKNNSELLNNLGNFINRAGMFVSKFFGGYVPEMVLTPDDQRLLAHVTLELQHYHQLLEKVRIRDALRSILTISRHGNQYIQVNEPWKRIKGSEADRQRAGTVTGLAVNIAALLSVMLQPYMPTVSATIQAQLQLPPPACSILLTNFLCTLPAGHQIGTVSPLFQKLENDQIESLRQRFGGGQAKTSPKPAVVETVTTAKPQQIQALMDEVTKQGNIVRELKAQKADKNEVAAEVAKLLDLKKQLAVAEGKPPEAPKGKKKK
TEST_READOUT: inhibition (%)

- NC(=O)[C@H](Cc1ccc(O)cc1)NC(=O)C1CCN(/C=C2\N=C(c3ccc(Br)cc3)OC2=O)CC1: 6
- NC(=O)[C@H](Cc1ccc(O)cc1)NC(=O)C1CCN(/C=C2\N=C(c3ccc(Cl)cc3Cl)OC2=O)CC1: 5
- NC(=O)[C@H](Cc1ccc(O)cc1)NC(=O)C1CCCN(/C=C2\N=C(c3ccc(Cl)cc3Cl)OC2=O)C1 (some centres not stated): 20
- NC(=O)[C@H](Cc1ccc(O)cc1)NC(=O)C1CCCCN1/C=C1\N=C(c2ccc(Br)cc2)OC1=O (some centres not stated): 19
- NC(=O)[C@H](Cc1ccc(O)cc1)NC(=O)C1CCCCN1/C=C1\N=C(c2ccc(Cl)cc2Cl)OC1=O (some centres not stated): 88
- NC(=O)[C@H](Cc1ccc(O)cc1)NC(=O)C1CCCN(/C=C2\N=C(c3ccc(Br)cc3)OC2=O)C1 (some centres not stated): 23
- NC(=O)[C@H](Cc1ccc(O)cc1)NC(=O)[C@@H]1CCCN1/C=C1\N=C(c2ccc(Br)cc2)OC1=O: 5

###

system: Methionine--tRNA ligase (Enterococcus faecalis); test: Inhibition of Enterococci faecalis methionyl-tRNA synthetase (EfMetRS) at the concentration of 10 uM
TEST_READOUT: inhibition (%)

- NC(=O)[C@H](Cc1ccc(O)cc1)NC(=O)C1CCCCN1/C=C1\N=C(c2ccc(Cl)cc2Cl)OC1=O (stereo not given in full): 60
- NC(=O)[C@H](Cc1ccc(O)cc1)NC(=O)C1CCCN(/C=C2\N=C(c3ccc(Cl)cc3Cl)OC2=O)C1 (stereo not given in full): 2
- NC(=O)[C@H](Cc1ccc(O)cc1)NC(=O)C1CCN(/C=C2\N=C(c3ccc(Cl)cc3Cl)OC2=O)CC1: 5
- NC(=O)[C@H](Cc1ccc(O)cc1)NC(=O)C1CCN(/C=C2\N=C(c3ccc(Br)cc3)OC2=O)CC1: 7
- NC(=O)[C@H](Cc1ccc(O)cc1)NC(=O)C1CCCCN1/C=C1\N=C(c2ccc(Br)cc2)OC1=O (stereo not given in full): 7
